Listing of recorded activation at 1 µM by entry.
SUBJECT OF TEST: histaminergic H1 receptor (Homo sapiens, UniProt P35367)
Sequence (P35367 whole entry): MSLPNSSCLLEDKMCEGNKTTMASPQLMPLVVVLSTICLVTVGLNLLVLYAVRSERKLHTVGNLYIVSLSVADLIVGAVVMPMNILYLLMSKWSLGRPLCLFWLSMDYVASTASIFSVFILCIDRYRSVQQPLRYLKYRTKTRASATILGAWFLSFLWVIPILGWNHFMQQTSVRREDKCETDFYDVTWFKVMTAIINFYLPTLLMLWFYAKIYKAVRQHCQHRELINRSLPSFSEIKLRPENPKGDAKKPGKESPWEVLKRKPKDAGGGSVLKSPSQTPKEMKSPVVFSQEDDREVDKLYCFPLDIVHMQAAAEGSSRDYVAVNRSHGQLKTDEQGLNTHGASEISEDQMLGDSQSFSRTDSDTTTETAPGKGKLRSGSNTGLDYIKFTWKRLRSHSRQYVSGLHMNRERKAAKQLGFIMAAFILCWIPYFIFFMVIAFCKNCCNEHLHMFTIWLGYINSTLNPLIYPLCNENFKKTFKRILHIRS
MEASUREMENT DESCRIPTION: Cellular functional assay, histaminergic H1 receptor (agonism/antagonism)
Type: cell-based
CONDITION SUMMARY: agonist effect, percent of control specific agonist response; compounds tested at 1×10^−6M; read-out: H1 -ag [%]
# value in %; strip the unit string

Worked set:
O=S(=O)(NCCCCN1CCN(c2nsc3ccccc23)CC1)c1csc2ccccc12 [Compound 240]    0
O=S(=O)(NCCCCN1CCN(c2nsc3ccccc23)CC1)c1cc2ccccc2s1 [Compound 239]    0
O=S(=O)(NCCCN1CCC(c2noc3cc(F)ccc23)CC1)c1ccc2cn[nH]c2c1 [Compound 352]    1

Request: Fill in: activation at 1 µM of Cc1c(S(=O)(=O)NCCCN2CCC(c3noc4cc(F)ccc34)CC2)sc2ccc(F)cc12 [Compound 102] is ___
Result: 0

Request: Next molecule up: O=S(=O)(NCCCCN1CCN(c2nsc3ccccc23)CC1)c1cc2ccc(Cl)cc2s1 [Compound 241]
Result: 1

Request: O=S(=O)(NCCCN1CCC(c2noc3cc(F)ccc23)CC1)c1ccc(F)c(Cl)c1 [Compound 331] ?
Result: 2

Request: Same question, O=S(=O)(NCCCCN1CCN(c2noc3ccccc23)CC1)c1cc2ccc(Cl)cc2s1 [Compound 288] this time
Result: 0

Request: Same read-out for O=S(=O)(NCCCCN1CCC(c2noc3cc(F)ccc23)CC1)c1csc2ccccc12 [Compound 313] ?
Result: 4
